test system: HEPG2 cells; assay: MTT antiproliferative assay, HEPG2 cells; details: Homo sapiens, HepG2, 48 h, read-out: HEPG2 antiproliferative IC50
Metric name: pIC50
# pIC50 = -log10(concentration in molar units)

Here's what some known entries look like.
[[record]]
compound = "CCc1ccc(C(=O)Nc2cc3c(cc2-c2ccc(C(=O)NCc4ccc(C(=O)NO)cc4)cc2)OCO3)cc1 [Fb-3]"
reported = 4.83

[[record]]
compound = "O=C(NO)c1ccc(CNC(=O)c2ccc(-c3cc4c(cc3NC(=O)c3ccccc3F)OCO4)cc2)cc1 [Fb-4]"
reported = 4.76


# evaluate next
COc1ccc(C(=O)Nc2cc3c(cc2-c2ccc(C(=O)NCc4ccc(C(=O)NO)cc4)cc2)OCO3)cc1 [Fb-2] has a reported pIC50 of 4.75

###

The following compounds are listed with their measured inhibition at 1 µM values.
test system: U937 cells; assay: MTT antiproliferative assay, U937 cells; details: Homo sapiens, U-937, read-out: U937 percentage inhibitory rate, 1 µM; U937 cells; MTT; mean of three experiments
Quick note: give the figure in %, leave out the unit.

With U937 cells as the test system, O=C(NO)c1ccc(CNC(=O)c2ccc(-c3cc4c(cc3NC(=O)c3ccc(C(F)(F)F)cc3)OCO4)cc2)cc1 showed inhibition at 1 µM of 84.9

Test item O=C(CCCNC(=O)c1ccc(-c2cc3c(cc2NC(=O)c2ccccc2C(F)(F)F)OCO3)cc1)NO ; U937 cells; reported inhibition at 1 µM was 15

Tested on U937 cells, the item O=C(CCCNC(=O)c1ccc(-c2cc3c(cc2NC(=O)c2ccccc2F)OCO3)cc1)NO showed inhibition at 1 µM equal to 19.9

###

tested on: U937 cells; assay: MTT antiproliferative assay, U937 cells; conditions: Homo sapiens, U-937, read-out: U937 percentage inhibitory rate, 1 µM; U937 cells; MTT; mean of three experiments
Values of inhibition at 1 µM greater than or equal to 20% map to yes; values below map to no.

Record excerpt, results attached:
[[record]]
query_smiles = "Cc1ccccc1C(=O)Nc1cc2c(cc1-c1ccc(C(=O)NCCCC(=O)NO)cc1)OCO2"
assigned_label = "no"

[[record]]
query_smiles = "O=C(CCCNC(=O)c1ccc(-c2cc3c(cc2NC(=O)c2cc(F)ccc2F)OCO3)cc1)NO"
assigned_label = "no"

[[record]]
query_smiles = "CCc1ccc(C(=O)Nc2cc3c(cc2-c2ccc(C(=O)NCc4ccc(C(=O)NO)cc4)cc2)OCO3)cc1"
assigned_label = "yes"

[[record]]
query_smiles = "COc1ccc(C(=O)Nc2cc3c(cc2-c2ccc(C(=O)NCCCC(=O)NO)cc2)OCO3)cc1"
assigned_label = "yes"


Answer whether inhibition at 1 µM of O=C(CCCNC(=O)c1ccc(-c2cc3c(cc2NC(=O)c2c(F)cccc2Cl)OCO3)cc1)NO is greater than or equal to 20%. no

State whether the measured inhibition at 1 µM reaches 20%, counting equality as reaching it, for O=C(NO)c1ccc(CNC(=O)c2ccc(-c3cc4c(cc3NC(=O)c3ccccc3F)OCO4)cc2)cc1 yes

# bool: inhibition at 1 µM of O=C(CCCNC(=O)c1ccc(-c2cc3c(cc2NC(=O)c2ccc(F)cc2F)OCO3)cc1)NO >= 20% no

Item O=C(NO)c1ccc(CNC(=O)c2ccc(-c3cc4c(cc3NC(=O)c3cccc(Br)c3)OCO4)cc2)cc1 with inhibition at 1 µM of 20% or above? yes

Decide: inhibition at 1 µM of CC(C)(C)OC(=O)Nc1cc2c(cc1-c1ccc(C(=O)NCc3ccc(C(=O)NO)cc3)cc1)OCO2 >= 20%? yes

Say whether CCc1ccc(C(=O)Nc2cc3c(cc2-c2ccc(C(=O)NCCCC(=O)NO)cc2)OCO3)cc1 shows inhibition at 1 µM of 20% or more. yes

hey, is inhibition at 1 µM for this one >= 20%? O=C(NO)c1ccc(CNC(=O)c2ccc(-c3cc4c(cc3NC(=O)c3ccccc3)OCO4)cc2)cc1 yes

Hello, I need to know if COc1ccccc1C(=O)Nc1cc2c(cc1-c1ccc(C(=O)NCCCC(=O)NO)cc1)OCO2 has measured inhibition at 1 µM not below 20%. Thanks! no

###

molecular target: HDAC2 (Homo sapiens); test: HDAC isoform inhibitory assay, HDAC2
Sequence (Q92769 whole entry, canonical isoform): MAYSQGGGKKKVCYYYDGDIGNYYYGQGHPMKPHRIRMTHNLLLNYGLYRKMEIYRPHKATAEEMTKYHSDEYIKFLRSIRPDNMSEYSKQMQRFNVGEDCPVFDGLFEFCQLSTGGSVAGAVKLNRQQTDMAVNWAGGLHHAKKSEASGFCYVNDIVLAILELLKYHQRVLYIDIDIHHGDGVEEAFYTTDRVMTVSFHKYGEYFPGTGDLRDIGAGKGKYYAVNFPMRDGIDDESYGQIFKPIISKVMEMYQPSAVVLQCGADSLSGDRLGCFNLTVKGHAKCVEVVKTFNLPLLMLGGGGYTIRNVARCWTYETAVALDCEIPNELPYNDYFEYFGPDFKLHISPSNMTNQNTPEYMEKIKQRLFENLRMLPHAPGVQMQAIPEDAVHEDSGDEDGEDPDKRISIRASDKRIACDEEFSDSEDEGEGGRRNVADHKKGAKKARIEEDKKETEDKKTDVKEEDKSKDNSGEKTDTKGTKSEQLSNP
Metric name: IC50 (nM)
Answer format: numeric, nM implied, no suffix.

Lab note: measured IC50 of O=C(NO)c1ccc(CNC(=O)c2ccc(-c3cc4c(cc3NC(=O)c3ccccc3F)OCO4)cc2)cc1 was 21.5

###

molecular target: HDAC3 (Homo sapiens, UniProt O15379); assay: HDAC isoform inhibitory assay, HDAC3
Sequence (O15379 whole entry, canonical isoform): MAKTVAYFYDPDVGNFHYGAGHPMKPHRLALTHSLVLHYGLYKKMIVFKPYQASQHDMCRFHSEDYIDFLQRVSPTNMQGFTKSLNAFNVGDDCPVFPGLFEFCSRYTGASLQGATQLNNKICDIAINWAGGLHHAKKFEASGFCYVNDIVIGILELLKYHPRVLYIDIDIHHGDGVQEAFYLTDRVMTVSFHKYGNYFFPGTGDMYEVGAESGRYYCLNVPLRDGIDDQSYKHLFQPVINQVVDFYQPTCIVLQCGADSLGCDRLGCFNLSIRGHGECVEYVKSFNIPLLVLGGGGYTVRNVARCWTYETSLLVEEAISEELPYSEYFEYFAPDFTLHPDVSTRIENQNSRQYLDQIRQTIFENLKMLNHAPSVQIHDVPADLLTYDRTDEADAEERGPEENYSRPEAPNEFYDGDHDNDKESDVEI
Sequence (Q9Y618 395-489 partner limits assumed): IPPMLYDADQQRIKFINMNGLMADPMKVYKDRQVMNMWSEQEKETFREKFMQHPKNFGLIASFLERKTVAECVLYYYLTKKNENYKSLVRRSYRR
Metric name: IC50 (nM)
Dear colleague, please return just the value in nM, with no unit written.

Recorded IC50 (molecule O=C(NO)c1ccc(CNC(=O)c2ccc(-c3cc4c(cc3NC(=O)c3ccccc3F)OCO4)cc2)cc1 ): 11

###

Recorded HDACs percentage inhibitory rate, one value per entry.
System: Hela nucleus extract containing a mixture of HDAC isoforms
Assay: HDAC enzyme inhibitory assay with Hela nucleus extract
Assay type: biochemical
Details: 1 µM, mean of three experiments
Experimental: The HDAC enzyme inhibitory activities of synthesised compounds were investigated by utilising Hela nucleus extract containing a mixture of HDAC isoforms. Percentage inhibitory rate was used to determine the activity of tested compounds (Tables 1 and 2). The Fa series compounds were firstly synthesised for the activity screening. […] To investigate whether aromatic linker could improve the inhibitory activities, structural modifications were performed on current molecules.
Express your answer in %, writing the number without its unit.

Take a look at these entries with their results.
[[record]]
compound = "COc1ccccc1C(=O)Nc1cc2c(cc1-c1ccc(C(=O)NCCCC(=O)NO)cc1)OCO2 [Fa-2]"
system_tested = "Hela nucleus extract containing a mixture of HDAC isoforms"
unit_of_measure = "%"
reported = 15.23

[[record]]
compound = "O=C(CCCNC(=O)c1ccc(-c2cc3c(cc2NC(=O)c2ccc(C(F)(F)F)cc2)OCO3)cc1)NO [Fa-12]"
system_tested = "Hela nucleus extract containing a mixture of HDAC isoforms"
unit_of_measure = "%"
reported = 17.69

[[record]]
compound = "O=C(NO)c1ccc(CNC(=O)c2ccc(-c3cc4c(cc3NC(=O)c3ccc(F)cc3)OCO4)cc2)cc1 [Fb-11]"
system_tested = "Hela nucleus extract containing a mixture of HDAC isoforms"
unit_of_measure = "%"
reported = 48.27

[[record]]
compound = "O=C(CCCNC(=O)c1ccc(-c2cc3c(cc2NC(=O)c2ccccc2Cl)OCO3)cc1)NO [Fa-10]"
system_tested = "Hela nucleus extract containing a mixture of HDAC isoforms"
unit_of_measure = "%"
reported = 23.41

[[record]]
compound = "O=C(CCCNC(=O)c1ccc(-c2cc3c(cc2NC(=O)c2cccc(C(F)(F)F)c2)OCO3)cc1)NO [Fa-9]"
system_tested = "Hela nucleus extract containing a mixture of HDAC isoforms"
unit_of_measure = "%"
reported = 18.92


HDACs percentage inhibitory rate reading for O=C(CCCNC(=O)c1ccc(-c2cc3c(cc2NC(=O)c2ccc(F)cc2F)OCO3)cc1)NO [Fa-15] : 19.51

The value of HDACs percentage inhibitory rate measured for the compound COc1ccc(C(=O)Nc2cc3c(cc2-c2ccc(C(=O)NCCCC(=O)NO)cc2)OCO3)cc1 [Fa-13] turned out to be 44.51

Input O=C(CCCNC(=O)c1ccc(-c2cc3c(cc2NC(=O)c2ccc(OC(F)(F)F)cc2)OCO3)cc1)NO [Fa-16] . Output HDACs percentage inhibitory rate: 34.10

Notebook: O=C(CCCNC(=O)c1ccc(-c2cc3c(cc2NC(=O)c2ccccc2C(F)(F)F)OCO3)cc1)NO [Fa-6] , HDACs percentage inhibitory rate read as 24.88

###

tested on: U937 cells; test: MTT antiproliferative assay, U937 cells; conditions: Homo sapiens, U-937, read-out: U937 percentage inhibitory rate, 1 µM; U937 cells; MTT; mean of three experiments
Threshold check on inhibition at 1 µM: at or above 20% gives TRUE, strictly below gives FALSE.

Example results:
[[record]]
compound = "O=C(CCCNC(=O)c1ccc(-c2cc3c(cc2NC(=O)c2ccc(F)c(Cl)c2)OCO3)cc1)NO [Fa-19]"
assigned_label = "FALSE"

[[record]]
compound = "O=C(CCCNC(=O)c1ccc(-c2cc3c(cc2NC(=O)c2ccc(F)cc2)OCO3)cc1)NO [Fa-3]"
assigned_label = "FALSE"

[[record]]
compound = "O=C(NO)c1ccc(CNC(=O)c2ccc(-c3cc4c(cc3NC(=O)c3ccccc3Cl)OCO4)cc2)cc1 [Fb-12]"
assigned_label = "TRUE"

[[record]]
compound = "O=C(CCCNC(=O)c1ccc(-c2cc3c(cc2NC(=O)c2cc(F)cc(F)c2)OCO3)cc1)NO [Fa-14]"
assigned_label = "FALSE"

[[record]]
compound = "O=C(CCCNC(=O)c1ccc(-c2cc3c(cc2NC(=O)c2ccc(F)cc2C(F)(F)F)OCO3)cc1)NO [Fa-18]"
assigned_label = "FALSE"

[[record]]
compound = "O=C(CCCNC(=O)c1ccc(-c2cc3c(cc2NC(=O)c2ccc(OC(F)(F)F)cc2)OCO3)cc1)NO [Fa-16]"
assigned_label = "FALSE"


Decide: inhibition at 1 µM of O=C(NO)c1ccc(CNC(=O)c2ccc(-c3cc4c(cc3NC(=O)c3cccc(F)c3)OCO4)cc2)cc1 [Fb-6] >= 20%? TRUE
